- test: Plasmodium falciparum growth inhibition, primary screen, strain 3D7, DAPI fluorescence, 100 nL (AID 1184);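 further: parasites grown inside human red blood cells in medium with human serum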
- conditions: P. falciparum 3D7 growth, 3 d, higher = more signal
Returns one of 1.0 or 0.0; 1.0 when z-score is >= -0.9.

compound: COc1cccc([C@@H]2Oc3ccc(Br)cc3C(=O)[C@H]2O)c1
class: 1.0
--
compound: CN(C)C(=O)[C@@]1(Cc2ccccc2)N=C(c2ccc(OCCCO)cc2)O[C@H]1c1ccccc1CN=[N+]=[N-]
class: 0.0
--
compound: CCOC(=O)[C@H](CC(C)C)NC(=O)CCC1CC(OC(=O)NCc2cccc3ccccc23)CC2(CCCC(COC(=O)NCCN3CCOCC3)O2)O1 (stereo partly specified)
class: 0.0
--
compound: COc1ccc(O[C@H]2C=C[C@@H](c3ccccc3)O[C@@H]2COC(=O)CCC(C)=NOCC[C@@H]2C=C[C@H](OC(C)=O)[C@@H](COC(C)=O)O2)cc1
class: 1.0
--
compound: CN1C(=O)C2C=CC(C(O)c3ccc(Br)cc3)N(N(c3ccccc3)c3ccccc3)C2C1=O (stereo unspecified)
class: 1.0
--
compound: CCOC(=O)[C@H](CC(C)C)NC(=O)CCC1CC(OC(=O)NCCc2ccc(F)cc2)CC2(CCCC(COC(=O)NCc3ccccc3)O2)O1 (stereo partly specified)
class: 0.0
--
compound: CC(C)CON=C1C[C@@H](O)[C@@H](O)[C@@H]2[C@@H]3C(=O)N(C[C@@H]4CCCO4)C(=O)[C@@H]3CC[C@H]12
class: 1.0
--
compound: COc1ccc(OC[C@H]2Cc3c(-c4ccccc4)nc4c(c3CO2)CN(CCOc2ccccc2)CC4)cc1
class: 0.0
--
compound: COc1cccc([C@H]2Oc3ccc(OC)cc3C(=NO[C@H](C)c3cn([C@@H]4COC[C@H]4O)nn3)[C@@H]2O)c1
class: 1.0
--
compound: CCc1cc2c(nc1CC)CCN(CCC(C)=NOC[C@@H](O)COCc1ccco1)C2
class: 1.0
